- measurement_target: Estrogen receptor (Homo sapiens) (UniProt P03372)
- Sequence (whole entry): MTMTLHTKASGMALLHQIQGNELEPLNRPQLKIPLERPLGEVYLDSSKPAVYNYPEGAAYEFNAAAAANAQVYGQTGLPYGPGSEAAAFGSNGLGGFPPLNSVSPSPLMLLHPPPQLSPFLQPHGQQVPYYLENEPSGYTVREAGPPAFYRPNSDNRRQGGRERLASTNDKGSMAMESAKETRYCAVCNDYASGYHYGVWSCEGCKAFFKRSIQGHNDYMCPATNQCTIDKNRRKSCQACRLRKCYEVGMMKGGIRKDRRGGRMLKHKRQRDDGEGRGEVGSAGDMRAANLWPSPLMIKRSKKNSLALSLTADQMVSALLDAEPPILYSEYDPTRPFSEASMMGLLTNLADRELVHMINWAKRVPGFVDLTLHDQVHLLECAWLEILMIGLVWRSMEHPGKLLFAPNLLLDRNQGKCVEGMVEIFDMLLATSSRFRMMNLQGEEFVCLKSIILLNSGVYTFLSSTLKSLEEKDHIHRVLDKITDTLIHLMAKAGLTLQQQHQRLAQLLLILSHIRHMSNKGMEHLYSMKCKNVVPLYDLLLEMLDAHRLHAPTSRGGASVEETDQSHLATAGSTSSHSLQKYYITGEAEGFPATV
- test_method_notes: Activation of human estrogen receptor alpha expressed in HEK293 cells at 10 uM by beta-galactosidase reporter gene assay relative to 3,17 beta-estradiol
- Type: cell-based
Activity overview
State the answer as a number, implicitly in %.

Past entries and their recorded results:
O=C(CCCc1ccccc1)CC(O)c1ccccc1 (single isomer, unassigned; 24b) : 59.3
O=C(CCCc1ccccc1)CC(O)c1ccccc1 (single isomer, unassigned; 24a) : 91.4
c1ccc(CCC2=NOC(Cc3ccc4ccccc4c3)C2)cc1 (single isomer, unassigned; 53b) : 13
COC(CC(=O)Cc1cccc2ccccc12)Cc1cccc2ccccc12 (single isomer, unassigned; 64b) : 23.9
c1ccc(CCC2=NOC(Cc3cccc4ccccc34)C2)cc1 (single isomer, unassigned; 52b) : 17.2

Q. Look up and report measured Activity for this entry: O=C(CCc1ccccc1)CC(O)CCc1ccccc1 (stereo not drawn)
A. 16.2

Q. Look up and report measured Activity for this entry: Oc1ccccc1CCC1=NOC(Cc2ccc(F)cc2)C1 (single isomer, unassigned; 73a)
A. 82

Q. Look up and report measured Activity for this entry: O=C(CCc1ccccc1)CC(O)Cc1ccc2ccccc2c1 (single isomer, unassigned; 57b)
A. 20.1

Q. Look up and report measured Activity for this entry: CS(C)=C(C(=O)CCCc1ccccc1)C(=O)CCc1ccccc1
A. 0.6

Q. Look up and report measured Activity for this entry: c1ccc(CCC2=NOC(c3ccccc3)C2)cc1 (single isomer, unassigned; 12b)
A. 11.2

Q. Look up and report measured Activity for this entry: c1ccc(CCC2=NOC(Cc3ccccc3)C2)cc1 (stereo not drawn)
A. 38.2

Q. Look up and report measured Activity for this entry: Oc1ccc(CCC2=NOC(Cc3ccccc3)C2)cc1 (stereo not drawn)
A. 171

Q. Look up and report measured Activity for this entry: O=C(Cc1ccccc1)CC(O)CCc1ccccc1 (stereo not drawn)
A. 4.3
